The molecules listed here are annotated with their cytotoxicity at 10 µM.
Experiment: Toxicity liver stage against HepG2, at 10uM
Format: cell-based
Parameters: test concentration 10 uM, cell line HepG2-A16-CD81EGFP
Conditions: human, HepG2-A16-CD81EGFP cells; read-out: INHIBITION
// note: answer is a bare numeric in %

The examples below pair each entry with its known result.
molecule: NS(=O)(=O)CCN1CCN(c2cc(F)ccc2F)CC1
cytotoxicity at 10 µM / %: -14.4
--
molecule: Cc1nonc1C1CCCN1C(=O)c1cn2ccsc2n1 (centres undefined)
cytotoxicity at 10 µM / %: 9.59
--
molecule: CCc1nc(CC(=O)NCC(Cc2ccc(F)cc2)C(N)=O)cs1 (centres undefined)
cytotoxicity at 10 µM / %: -0.86

# return recorded cytotoxicity at 10 µM for entry `O=C(NCc1cncc2c1CCN(Cc1ccc(F)cc1)C2)C1CC1`
-3.26

# return recorded cytotoxicity at 10 µM for entry `Cc1nc(-c2ccco2)ccc1C(=O)N1CCc2nnc(N)cc2C1`
-7.09

# return recorded cytotoxicity at 10 µM for entry `CNC(=O)CN1CC[C@H]2CN(C(=O)c3ccoc3)C[C@H]2C1`
-2.8

# return recorded cytotoxicity at 10 µM for entry c1csc(CN2CCOCC3(CCN(C4CCOCC4)C3)C2)c1 (centres undefined)
-0.608

# return recorded cytotoxicity at 10 µM for entry `Cc1cccc(-c2nc(CN3CCOCS3(=O)=O)c(C)o2)c1`
2.01

# return recorded cytotoxicity at 10 µM for entry `CCNC(=O)N1CCc2ccc(NC(=O)NCc3ccsc3)cc21`
-11.8

Data origin: ChEMBL document CHEMBL4513216
